target: aldose reductase (Oryctolagus cuniculus)
pIC50: −log10 of the molar value.

{"compound": "O=C(O)Cn1c(=O)n(Cc2ccc(I)cc2F)c(=O)c2ccccc21 [Compound D]", "pIC50": 8.28}
